assay: Biodistribution: organ distribution of F-18 signal in mice; type: in vivo, male NMRI mice; settings: fat, 2 min post i.v. injection
Assay metric: Organ distribution of F-18 signal, fat (% ID/g)

O=C(NCC(=O)N1CCN(c2ccc(OCc3ccccc3)cc2)CC1)c1cccnc1[18F] [Example 12c]	1.00
O=C(NCC(=O)N1CCN(c2ccc(OCc3ccccc3)cc2)CC1)c1cccc(OCC[18F])c1	1.97
O=C(NCC(=O)N1CCN(c2ccc(OCc3ccccc3)cc2)CC1)c1ccnc([18F])c1 [Example 11c]	1.52
O=C(NCC(=O)N1CCN(c2ccc(OCc3ccccc3)cc2)CC1)c1ccc([18F])nc1 [Example 10e]	1.79
O=C(NCC(=O)N1CCN(c2ccc(OCc3ccccc3)cn2)CC1)c1ccnc([18F])c1 [Example 14f]	1.05
